- Test system: Pseudomonas aeruginosa WT PAO1
- Experiment: Antibacterial activity (MIC), microbroth dilution
- Format: cell-based
- Condition Summary: Pseudomonas aeruginosa, PAO1, read-out: Antibacterial activity (MIC)
Quantity Kind: MIC (µg/mL)
State the answer as a number, implicitly in µg/mL.

Worked examples, 2 molecules total:
> print(dat)
                             given.smiles                  assayed.system  quantity.kind      u  numeric.result
1  Cc1nc2ccccc2n1C(=O)/C=C/c1ccc(Cl)cc1Cl  Pseudomonas aeruginosa WT PAO1            MIC  µg/mL             256
2        Cc1nc2ccccc2n1C(=O)/C=C/c1ccccc1  Pseudomonas aeruginosa WT PAO1            MIC  µg/mL             256

Switching to the query record.
*Q* Report MIC under test system Pseudomonas aeruginosa WT PAO1 for `Cc1nc2ccccc2n1C(=O)/C=C/c1ccc(F)cc1` .
*A* 256

----------
Quick reference: MIC of the listed items.
- Test system: A. baumannii ATCC 19606
- Experiment: Checkerboard titration MIC with efflux pump inhibitor PAβN
- Assay type: cell-based
- Condition Summary: Acinetobacter baumannii, ATCC19606, A. baumannii ATCC 19606; +PAβN 100 μg/mL
Just so you know, I need the unit written after the number.

> print(dat)
                               given.smiles    result
1      Cc1nc2ccccc2n1C(=O)/C=C/c1ccc(Br)cc1   8 µg/mL
2      Cc1nc2ccccc2n1C(=O)/C=C/c1ccc(Cl)cc1   8 µg/mL
3  COc1ccc(/C=C/C(=O)n2c(C)nc3ccccc32)cc1OC   8 µg/mL
4    Cc1nc2ccccc2n1C(=O)/C=C/c1ccc(Cl)cc1Cl  16 µg/mL
5       Cc1nc2ccccc2n1C(=O)/C=C/c1ccc(F)cc1  32 µg/mL

Switching to the query record.
*Q* Report MIC under test system A. baumannii ATCC 19606 for `Cc1nc2ccccc2n1C(=O)/C=C/c1ccccc1` .
*A* 64 µg/mL

----------
Quick reference: MIC of the listed items.
- Tested on: Pseudomonas aeruginosa WT PAO1
- Experiment: Antibacterial activity (MIC), microbroth dilution
- Assay type: cell-based
- Condition Summary: Pseudomonas aeruginosa, PAO1, read-out: Antibacterial activity (MIC)

Worked examples, 2 compounds total:
> print(dat)
                           given.smiles  quantity.kind       result
1  Cc1nc2ccccc2n1C(=O)/C=C/c1ccc(Br)cc1            MIC  > 256 µg/mL
2  Cc1nc2ccccc2n1C(=O)/C=C/c1ccc(Cl)cc1            MIC  > 256 µg/mL

*Q* Give recorded MIC. `COc1ccc(/C=C/C(=O)n2c(C)nc3ccccc32)cc1OC`
*A* > 256 µg/mL
